System: HL-60(TB) leukemia
assay.comment: NCI-60 one-dose screen, 48 h (100 = growth as untreated, 0 = no growth, -100 = all killed)
experimental.context: 10 µM unless noted
The panel holds about 83,000 compounds, 20% with a hit somewhere; the sample as a whole holds those more often.

{"compound": "Cn1ccnc1C(=O)/C=C/c1ccc(C(=O)Nc2ccc(NC(=O)CCNC(=O)c3csc(Br)n3)cc2)cc1", "growth (%)": 41}
{"compound": "CC1=C(CN(O)C(N)=O)C2=C(C)C3(CC3)[C@@](C)(O)C(=O)C2=C1", "growth (%)": -28.2}
{"compound": "O=C(CCCCCCNC(=O)C(O)(O)C(F)(F)F)Nc1ccc(-c2ccccc2)cc1", "growth (%)": 13.1}
{"compound": "Cc1ccc(-c2cc(-c3cccc4ccccc34)n3c(n2)nc2ccccc23)cc1", "growth (%)": 7.27}
{"compound": "O=C(CCCc1ccc(N(CCCl)CCCl)cc1)OCc1ccccc1", "growth (%)": 68.7}
{"compound": "COc1cccc(NC2=CC(=O)C(C)=C(C)C2=O)c1", "growth (%)": 3.49}
{"compound": "C#CCOc1ccc(C(Nc2ccc(Cl)cc2)c2nnnn2C2CCCCC2)cc1 (centres undefined)", "growth (%)": 83.8}
{"compound": "COc1cc(-c2nnc(SCc3ccc(O)c4ncccc34)n2-c2ccccc2)cc(OC)c1OC", "growth (%)": -17.8}
{"compound": "CS(=O)(=O)Nc1cc(-c2ccc3ncc(C#N)c(NCc4ccccc4O)c3c2)cnc1Cl", "growth (%)": 12.4}
{"compound": "CC1=C[C@H]2O[C@@H]3C[C@H]4OC(=O)/C=C\\C=C\\[C@H]([C@@H](C)O)OCC[C@@H](C)[C@H](O)C(=O)OC[C@@]2(CC1)[C@]4(C)[C@]31CO1", "growth (%)": -50.3}
{"compound": "C[C@@H](Nc1c(C#N)cnc2ccc(-c3cnc(N)nc3)cc12)c1ccccc1", "growth (%)": 8.49}
{"compound": "CC1=C(C)C(=O)C(Nc2cccc(C(F)(F)F)c2)=C(Cl)C1=O", "growth (%)": 38.5}
{"compound": "Clc1ccc2c(N/N=C/c3c[nH]c4ccccc34)ccnc2c1", "growth (%)": -34.7}
{"compound": "CC1=NC2=NC(=O)/C(=C3/N=C(C)C=C(c4ccccc4)N3N)NN2C(c2ccccc2)=C1", "growth (%)": 113}
{"compound": "O=C(CCN1C(=O)/C(=C/c2ccccc2F)SC1=S)N1CCOCC1", "growth (%)": 82.7}
{"compound": "Cc1ccc(-n2cc(/C=C/C(=O)c3ccc(S(C)(=O)=O)cc3)c(-c3ccc(S(C)(=O)=O)cc3)n2)cc1", "growth (%)": 69.4}
{"compound": "O=C(CSc1nnc(-c2ccc(Cl)cc2)n1-c1ccccc1)Nc1ccc(Cl)cc1", "growth (%)": 79.8}
{"compound": "O=c1oc2ccc(-c3ccc(F)cc3F)cc2c(=O)n1-c1ccc(Br)cc1F", "growth (%)": 58.8}
{"compound": "CC1(C)[C@@H](O)CC[C@]2(C)[C@H]3CC[C@@H]4[C@H]5[C@H](C(=O)/C=C\\c6ccc([N+](=O)[O-])cc6)CC[C@]5(O)CC[C@@]4(C)[C@]3(C)CC[C@@H]12", "growth (%)": 27.9}
